system: Myzus persicae (Green peach aphid); assay: Myzus persicae feeding/contact activity on sunflower leaf discs; type: in vivo; settings: foliar, 144 h, application rate 200 ppm, aphid population of mixed ages, assessed 6 days after infestation, read-out: mortality
MEASURED_QUANTITY: mortality at 200 ppm

[
  {
    "MOLECULAR_STRING": "Cn1nc(C(F)(C(F)(F)F)C(F)(F)F)c(OC(F)F)c1-n1cc(-c2ccc(Cl)c(C(=O)N(CC#N)C3CC3)c2)cn1",
    "TARGET_DESC": "Myzus persicae (Green peach aphid)",
    "mortality at 200 ppm": "≥ 80%"
  },
  {
    "MOLECULAR_STRING": "COCN(C(=O)c1cc(-c2cnn(-c3c(OC(F)F)c(C(F)(C(F)(F)F)C(F)(F)F)nn3C)c2)ccc1Cl)C1(C#N)CC1",
    "TARGET_DESC": "Myzus persicae (Green peach aphid)",
    "mortality at 200 ppm": "≥ 80%"
  }
]

Now consider a different compound.
Qu. Given the compound CC(=O)N(C(=O)c1cc(-c2cnn(-c3c(OC(F)F)c(C(F)(C(F)(F)F)C(F)(F)F)nn3C)c2)ccc1Cl)C1(C#N)CC1 , write its reported mortality at 200 ppm.
Ans. ≥ 80%
